Reference for the values: ChEMBL document CHEMBL5113415

Test system: Yellow fever virus
Assay Protocol: Antiviral activity against YFV-17D infected in […] incubated for 7 days by CellTiter 96 luminescent cell viability assay
Assay type: functional, organism-based
Measurement Context: 168 h
Readout Label: IC50

Please fill in: IC50 reported for O=C(c1ccc(C(F)(F)F)cc1O)c1[nH]c(Cl)c(Cl)c1-n1c(C(=O)c2ccc(C(F)(F)F)cc2O)cc(Cl)c1Cl = > 200000 nM

Please fill in: IC50 reported for O=C(c1ccc(C(F)(F)F)cc1O)c1[nH]c(Cl)c(Cl)c1-n1c(C(=O)c2ccc(C(F)(F)F)cc2O)cc(Cl)c1SCCc1ccccn1 = 570 nM

Please fill in: IC50 reported for O=C(c1ccc(C(F)(F)F)cc1O)c1[nH]c(Cl)c(Cl)c1-n1c(C(=O)c2ccc(C(F)(F)F)cc2O)cc(Cl)c1Sc1nc[nH]n1 = 24300 nM

Please fill in: IC50 reported for O=C(c1ccc(C(F)(F)F)cc1O)c1[nH]c(Cl)c(Cl)c1-n1c(C(=O)c2ccc(C(F)(F)F)cc2O)cc(Cl)c1Sc1ccccn1 = 50 nM

Please fill in: IC50 reported for O=C(c1ccc(C(F)(F)F)cc1O)c1[nH]c(Cl)c(Cl)c1-n1c(C(=O)c2ccc(C(F)(F)F)cc2O)cc(Cl)c1Sc1nc2cccnc2[nH]1 = 19700 nM

Please fill in: IC50 reported for Cn1nnnc1Sc1c(Cl)cc(C(=O)c2ccc(C(F)(F)F)cc2O)n1-c1c(C(=O)c2ccc(C(F)(F)F)cc2O)[nH]c(Cl)c1Cl = 2470 nM

Please fill in: IC50 reported for O=C(c1ccc(C(F)(F)F)cc1O)c1[nH]c(Cl)c(Cl)c1-n1c(C(=O)c2ccc(C(F)(F)F)cc2O)cc(Cl)c1Sc1cnccn1 = 840 nM

Please fill in: IC50 reported for O=C(c1ccc(C(F)(F)F)cc1O)c1[nH]c(Cl)c(Cl)c1-n1c(C(=O)c2ccc(C(F)(F)F)cc2O)cc(Cl)c1Sc1nc2ccccc2s1 = 820 nM

Please fill in: IC50 reported for Cc1nnc(Sc2c(Cl)cc(C(=O)c3ccc(C(F)(F)F)cc3O)n2-c2c(C(=O)c3ccc(C(F)(F)F)cc3O)[nH]c(Cl)c2Cl)s1 = 850 nM
